System: HeLa
Assay: Cytotoxicity against human TREx-HeLa cells assessed as cell viability at 2.5 uM after 48 hrs by WST-8 assay
Assay type: cell-based
endpoint label: Activity

sample_smiles=COC1=C(C)[C@@H]2CC(=O)O[C@@H]3C[C@H]4CC[C@H](OC)C(=O)[C@]4(C)[C@@H](C1=O)[C@@]32C recorded_measurement=Non-Toxic
sample_smiles=COc1c(C=O)c(O)cc2c1C(=O)c1ccccc1C2=O recorded_measurement=Non-Toxic
sample_smiles=COC1=C(OC)C(=O)[C@@]2(C)[C@H](C1)C[C@H]1OC(=O)C[C@@]3(O)C(C)=C(OC)C(=O)[C@H]2[C@@]13C recorded_measurement=Non-Toxic

---

Consider the following molecules and their measured Activity readings.
Test system: Human immunodeficiency virus 1
Assay: Inhibition of c-myc and His6-tagged full length HIV1 NL4-3 Vpr transfected in human TREx-HeLa cells assessed as cell proliferation at 2.5 uM after 48 hrs in presence of tetracycline by WST-8 assay (reference value: 100 +/- 1%)
Type: cell-based
Parameters: scale not given: the % may be the effect or the level left
Quick note: give the figure in %, leave out the unit.

Answered cases to consult:
molecule=COC1=CC[C@@H]2C[C@H]3OC(=O)C[C@H]4C(C=O)=C(OC)C(=O)[C@H]([C@@]2(C)C1=O)[C@@]34C recorded_measurement=153
molecule=COC1=CC(=O)[C@@H]2C[C@H]3OC(=O)C[C@H]4C(C)=C(OC)C(=O)[C@H]([C@@]2(C)C1=O)[C@@]34C recorded_measurement=155
molecule=COC1=CC[C@@H]2C[C@H]3OC(=O)C=C4C(CO)=C(OC)C(=O)[C@H]([C@@]2(C)C1=O)[C@]43C recorded_measurement=140
molecule="COC1=CC[C@@H]2C[C@H]3OC(O)C[C@H]4C(C)=C(OC)C(=O)[C@H]([C@@]2(C)C1=O)[C@@]34C (stereo partly specified)" recorded_measurement=174

Need Activity, item COC1=C(C)[C@]2(O)CC(=O)O[C@@H]3C[C@H]4CC[C@H](O)C(=O)[C@]4(C)[C@@H](C1=O)[C@@]32C
166

Bench note: what Activity did COC1=C(OC)C(=O)[C@@]2(C)[C@H](C1)C[C@H]1OC(=O)C[C@H]3C(CO)=C(OC)C(=O)[C@H]2[C@@]13C show?
126

---

Readings of Activity for the listed compounds
Tested on: Human immunodeficiency virus 1
Assay: Inhibition of c-myc and His6-tagged full length HIV1 NL4-3 Vpr transfected in human TREx-HeLa cells assessed as cell proliferation at 2.5 uM after 48 hrs in presence of tetracycline by WST-8 assay (reference value: 100 +/- 1%)
Format: cell-based
Set-up: scale not given: the % may be the effect or the level left
The figure you give is taken to be in %; do not add the unit.

In the examples that follow, each entry is paired with its recorded Activity.
sample_smiles=COC1=C(OC)C(=O)[C@@]2(C)[C@H](C1)C[C@H]1OC(=O)C[C@@]3(O)C(C)=C(OC)C(=O)[C@H]2[C@@]13C measured_on="Human immunodeficiency virus 1" recorded_measurement=138
sample_smiles=COC1=C(C)[C@@H]2CC(=O)O[C@@H]3C[C@H]4CC[C@H](O)C(=O)[C@]4(C)[C@@H](C1=O)[C@@]32C measured_on="Human immunodeficiency virus 1" recorded_measurement=156

Switching to the query record.
Fill in the blank: the reported Activity of COC1=CC[C@@H]2C[C@H]3OC(=O)C=C4C(C)=C(OC)C(=O)[C@H]([C@@]2(C)C1=O)[C@]43C is ____.
214
